Assay: Resazurin-based in vitro cytotoxicity with HepG2 cells
Format: cell-based, human
Details: HepG2 cells; human hepatocarcinoma cells, 48 h
readout_label: log10 of IC50 at 48 h (log10 of the value in µM)
Response schema: value (number) is log10 of IC50 at 48 h in units of µM.

Reference set, count: 5
O=C(Nc1ccc(N2CCNCC2)cc1)c1cccc(C(F)(F)F)c1Sc1ccc(F)cc1 [Compound 62] ... 0.97
O=C(Nc1ccc(N2CCNCC2)cc1)c1ccccc1Oc1ccccc1 [Compound 64] ... 1.09
O=C(Nc1ccc(N2CCOCC2)cc1)c1cccc(C(F)(F)F)c1Oc1ccc(F)cc1 [Compound 33] ... 1.55
O=C(Nc1ccccc1N1CCNCC1)c1cccc(C(F)(F)F)c1Oc1ccc(F)cc1 [Compound 53] ... 0.61
O=C(Nc1ccccc1N1CCNCC1)c1cccc(C(F)(F)F)c1Sc1ccc(F)cc1 [Compound 55] ... 0.66

Q) State the recorded log10 of IC50 at 48 h for this entry: O=C(Nc1ccc(N2CCNCC2)cc1)c1cccc(C(F)(F)F)c1Oc1ccccc1 [Compound 58]
A) 0.76

Q) Can you handle O=C(Nc1cccc(N2CCNCC2)c1)c1cccc(C(F)(F)F)c1Oc1ccc(F)cc1 [Compound 56] next?
A) 1.10

Q) Cool, now COc1cccc2c1C(=O)c1c(O)c3c(c(O)c1C2=O)C[C@@](O)(C(=O)CO)C[C@@H]3O[C@H]1C[C@H](N)[C@H](O)[C@H](C)O1 [DOX, doxorubicin, reference compound]
A) -0.52

Q) Try the molecule O=C(Nc1ccc(N2CCNCC2)cc1)c1cccc([N+](=O)[O-])c1Oc1ccc(F)cc1 [Compound 61]
A) 1.47

Q) Also need CC(C)(C)OC(=O)N1CCN(C(=O)c2cccc(C(F)(F)F)c2Oc2ccc(F)cc2)CC1 [Compound 50] , thanks.
A) 1.55

Q) Also, O=C(Nc1ccc(N2CCNCC2)cc1)c1cccc(C(F)(F)F)c1Oc1ccc(F)cc1 [Compound 57] please.
A) 1.02

Q) And O=C(Nc1ccc(N2CCNCC2)cc1)c1cccc(C(F)(F)F)c1 [Compound 66] ?
A) 1.07

###

System: P. falciparum NF54
Experiment: In vitro microplate assay against P. falciparum NF54 (3H-hypoxanthine incorporation)
Format: cell-based, Plasmodium falciparum
Conditions: chloroquine-sensitive strain NF54, erythrocytic stages; read-out: P.f.NF54 IC50
readout_label: pIC50
In textbook form, pIC50 equals minus log to base ten of the concentration in mol/L.

Q) Lab request: please report pIC50 under test system P. falciparum NF54 for O=C(Nc1ccccc1N1CCNCC1)c1cccc(C(F)(F)F)c1Sc1ccc(F)cc1 [Compound 55]
A) 6.16

###

Tested on: P. falciparum NF54
Assay: In vitro microplate assay against P. falciparum NF54 (3H-hypoxanthine incorporation)
Assay type: cell-based, Plasmodium falciparum
Conditions: Plasmodium falciparum, NF54, chloroquine-sensitive strain NF54, erythrocytic stages; read-out: P.f.NF54 IC50
Measured IC50 values are reported for all entries that follow.
Answer format: numeric, µM implied, no suffix.

For orientation, consider the following solved cases.
CC(C)(C)OC(=O)N1CCN(C(=O)c2cccc(C(F)(F)F)c2Oc2ccc(F)cc2)CC1 ... 51.8
O=C(c1cccc(C(F)(F)F)c1Oc1ccc(F)cc1)N1CCOCC1 ... 81.1
O=C(Nc1ccccc1N1CCOCC1)c1cccc(C(F)(F)F)c1Oc1ccc(F)cc1 ... 3.04
CC(=O)Nc1ccc(Oc2c(C(=O)Nc3ccc(N4CCNCC4)cc3)cccc2C(F)(F)F)cc1 ... 15.7
CN(C)c1ccc(NC(=O)c2cccc(C(F)(F)F)c2Oc2ccc(F)cc2)cc1 ... 7.58
O=C(Nc1ccc(N2CCNCC2)cc1)c1cccc(C(F)(F)F)c1Oc1ccccc1 ... 3.81
O=C(Nc1ccccc1N1CCNCC1)c1cccc(C(F)(F)F)c1Oc1ccc(F)cc1 ... 1.04
O=C(Nc1ccc(N2CCNCC2)cc1)c1ccccc1Oc1ccc(F)cc1 ... 2.04
CN(C)c1ccccc1NC(=O)c1cccc(C(F)(F)F)c1Oc1ccc(F)cc1 ... 4.4
O=C(Nc1ccccc1N1CCNCC1)c1cccc(C(F)(F)F)c1Sc1ccc(F)cc1 ... 0.692

# context switch: different compound, same IC50
Q) Fill in: IC50 of `O=C(Nc1ccc(N2CCNCC2)cc1)c1cccc([N+](=O)[O-])c1Oc1ccc(F)cc1` is ___
A) 4.1
